The values you see were collected from PubChem BioAssay (NCI).

Test system: EKVX NSCLC
Test: NCI tumour cell line growth inhibition, 48 h
# reported TGI; entries follow

Example cases with answers are listed next.
>>> measured("CCN(N=O)C1C2(CCCC2)NC(=O)C12CCCC2 (configuration not stated)")
"> 100 µM"
>>> measured("CCn1c2ccccc2c2ccc(C3C4C(=O)N(c5cccc6ccccc56)C(=O)C4ON3C(C(N)=O)c3ccccc3)cc21 (configuration not stated)")
"> 25 µM"
>>> measured("CS(=O)(=O)Nc1cc(-c2ccc3ncc(C#N)c(Nc4ccc(F)c(Cl)c4)c3c2)cnc1Cl")
"3.29 µM"
>>> measured("COc1cccc(C(=O)NNc2nc(Cl)nc(N3CCN(C(c4ccccc4)c4ccccc4)CC3)n2)c1")
"20 µM"
>>> measured("C/C(=C\\[Si](C)(C)c1ccco1)C(C)(O)[C@H](C)O (some centres not stated)")
"> 100 µM"
>>> measured("Cc1cc2c(cc1Cl)SC(NNCCO)=NS2(=O)=O")
"> 100 µM"
>>> measured("CCOC(=O)c1c(-c2ccccc2)n2c(=O)cc(C)c3c(O)c(O)cc1c32")
"24.3 µM"
>>> measured("COc1cc(C2C(C(=O)NCc3ccccc3)=C(C)NC(C)=C2C(=O)NCc2ccccc2)ccc1O")
"> 100 µM"
>>> measured("N#CCCC1(CCC#N)S(=O)(=O)OCCOS1(=O)=O")
"> 100 µM"
>>> measured("CNC(=O)/C=C/C1=CN2C(=O)c3ccc(C)c(O)c3NC(OC)C2C1 (configuration not stated)")
"< 0.0344 µM"

Item under review: OC1C2CCCCN2C[C@@H](O)[C@H]1O (some centres not stated) . Reported TGI?
> 100 µM

Entry CC(=O)OC(C(=O)[O][Ge]([CH3])([CH3])[CH3])c1ccccc1 (configuration not stated) please
> 100 µM
